# Tested on: SK-OV-3 ovarian
# PROTOCOL_SUMMARY: NCI-60 one-dose screen, 48 h
# MEASUREMENT_PARAMETERS: 10 µM unless noted
The panel holds about 83,000 compounds, 20% with a hit somewhere; the sample as a whole holds those more often. Activity calls are given as the source filed them. How the source made its calls: active means growth percent below 10; inactive means the rest.
Classes used: active, inactive

COMPOUND: COc1ccc(-n2nc(C(=O)Nc3ccc(F)cc3)nc2-c2cc(OC)c(OC)c(OC)c2)cc1
EXPERIMENTAL_SYSTEM: SK-OV-3 ovarian
DISCRETE_LABEL: inactive
//
COMPOUND: O=C(Nc1ccc([N+](=O)[O-])cc1)c1cc2ccccc2cc1O
EXPERIMENTAL_SYSTEM: SK-OV-3 ovarian
DISCRETE_LABEL: active
//
COMPOUND: Cc1csc(N/N=C/c2ccncc2)n1
EXPERIMENTAL_SYSTEM: SK-OV-3 ovarian
DISCRETE_LABEL: inactive
//
COMPOUND: COc1ccc(C2c3cccn3-c3ccccc3N2C(C)=O)cc1 (configuration not stated)
EXPERIMENTAL_SYSTEM: SK-OV-3 ovarian
DISCRETE_LABEL: inactive
//
COMPOUND: CCOC(=O)C1C(=O)C=C(c2cc(OC)c(OC)c(OC)c2)CC1c1sc(N(C)Cc2ccccc2)nc1Cl (configuration not stated)
EXPERIMENTAL_SYSTEM: SK-OV-3 ovarian
DISCRETE_LABEL: inactive
//
COMPOUND: O=c1c2cc(Br)cc(Br)c2nc(-c2ccc(Cl)cc2)n1/N=C\c1ccccc1F
EXPERIMENTAL_SYSTEM: SK-OV-3 ovarian
DISCRETE_LABEL: inactive
//
COMPOUND: COc1cc(NCC(O)CN(CC(C)C)CC(C)C)c2ncccc2c1 (configuration not stated)
EXPERIMENTAL_SYSTEM: SK-OV-3 ovarian
DISCRETE_LABEL: inactive
//
COMPOUND: C=C(c1ccc(C(=O)NCCCn2ccnc2)cc1)c1cc2c(cc1C)C(C)(C)CCC2(C)C
EXPERIMENTAL_SYSTEM: SK-OV-3 ovarian
DISCRETE_LABEL: active
//
COMPOUND: CCN(CC)CCNC(=O)n1cc(-c2ccncc2)c(-c2cc(Cl)cc(OC)c2)n1
EXPERIMENTAL_SYSTEM: SK-OV-3 ovarian
DISCRETE_LABEL: inactive
//
COMPOUND: NNc1ccc(S(N)(=O)=O)cc1
EXPERIMENTAL_SYSTEM: SK-OV-3 ovarian
DISCRETE_LABEL: inactive
//
COMPOUND: Cc1nn(-c2cccc(Cl)c2)c(C)c1N=Nc1ccc(Br)cc1
EXPERIMENTAL_SYSTEM: SK-OV-3 ovarian
DISCRETE_LABEL: inactive
//
COMPOUND: C=CCN(CC#N)CC=C
EXPERIMENTAL_SYSTEM: SK-OV-3 ovarian
DISCRETE_LABEL: inactive
//
COMPOUND: CCN(CC)c1ccc(/C=N/N=C(N)N)cc1
EXPERIMENTAL_SYSTEM: SK-OV-3 ovarian
DISCRETE_LABEL: inactive
//
COMPOUND: NS(=O)(=O)c1ccc(CCn2c(SCC(=O)N/N=C/c3ccccc3O)nc3ccccc3c2=O)cc1
EXPERIMENTAL_SYSTEM: SK-OV-3 ovarian
DISCRETE_LABEL: inactive
//
COMPOUND: CCN(CC)c1ccc(/C=N/NC(=O)c2ccc(S(C)(=O)=O)cc2)c(O)c1
EXPERIMENTAL_SYSTEM: SK-OV-3 ovarian
DISCRETE_LABEL: inactive
//
COMPOUND: COc1cccc(NC(=O)OC(C)C)c1
EXPERIMENTAL_SYSTEM: SK-OV-3 ovarian
DISCRETE_LABEL: inactive
//
COMPOUND: Nc1nc(NC2CC2)cc(-c2cccc(Cl)c2Cl)n1
EXPERIMENTAL_SYSTEM: SK-OV-3 ovarian
DISCRETE_LABEL: inactive
//
COMPOUND: CC(=O)C1CCC2C3CC(C)=C4CC(O)CCC4(C)C3CCC12C (configuration not stated)
EXPERIMENTAL_SYSTEM: SK-OV-3 ovarian
DISCRETE_LABEL: inactive
//
COMPOUND: Cc1cc(O)ccc1Sc1ccccc1[N+](=O)[O-]
EXPERIMENTAL_SYSTEM: SK-OV-3 ovarian
DISCRETE_LABEL: inactive
//
COMPOUND: COc1cc(/C=C\c2cc(/C=C\c3ccc(O)c(OC)c3)n(C(=O)Nc3ccc(C(F)(F)F)cc3)n2)ccc1O
EXPERIMENTAL_SYSTEM: SK-OV-3 ovarian
DISCRETE_LABEL: inactive
//
COMPOUND: CC1CCCN(CCCCOc2ccc(-c3ccc(C#N)cc3)cc2)C1 (configuration not stated)
EXPERIMENTAL_SYSTEM: SK-OV-3 ovarian
DISCRETE_LABEL: inactive
//
COMPOUND: CCN(CC)CCCC(C)Nc1ccnc2ccc(Oc3ccccc3)cc12 (configuration not stated)
EXPERIMENTAL_SYSTEM: SK-OV-3 ovarian
DISCRETE_LABEL: inactive
//
COMPOUND: Cc1cc(O)c2cc3c(O)c(O)ccc3cc2c1
EXPERIMENTAL_SYSTEM: SK-OV-3 ovarian
DISCRETE_LABEL: inactive
//
COMPOUND: ClC1=NC(Cl)C(Cl)=N/C1=N\c1ncn[nH]1 (configuration not stated)
EXPERIMENTAL_SYSTEM: SK-OV-3 ovarian
DISCRETE_LABEL: inactive
//
COMPOUND: Cc1ccc(Nc2cccc3ccccc23)cc1
EXPERIMENTAL_SYSTEM: SK-OV-3 ovarian
DISCRETE_LABEL: inactive
//
COMPOUND: C=C1C(=O)O[C@H]2[C@H]1CC/C(COC(=O)NCc1cn(C)c3ccccc13)=C\CC[C@@]1(C)O[C@@H]21
EXPERIMENTAL_SYSTEM: SK-OV-3 ovarian
DISCRETE_LABEL: inactive
//
COMPOUND: CCCCCCCCCCCCNC(=O)N[C@H](C(=O)N[C@H]1/C=C/CCNC(=O)/C=C/[C@H](C)NC1=O)C(C)C
EXPERIMENTAL_SYSTEM: SK-OV-3 ovarian
DISCRETE_LABEL: active

----------
# Test system: SK-MEL-5 melanoma
# PROTOCOL_SUMMARY: NCI-60 one-dose screen, 48 h
# MEASUREMENT_PARAMETERS: 10 µM unless noted
# Experimental: Growth inhibition of the SK-MEL-5 human tumor cell line is measured as a screen for anti-cancer activity. Cells are grown in 96 well plates and exposed to the test compound for 48 hours. Compounds are tested at a single concentration, which is 10^-5 M for most compounds. The reported endpoint is percent growth (GI% or GIPRCNT), where numbers from 0 - 100% represent growth inhibition, and numbers from -100% - 0 represent cell death. For example, a value of 40 represents 60% growth inhibition. […]
This is part of a sample that, as a whole, favours compounds with a hit. Of some 83,000 tested, about 20% had one in any assay. Calls of active or inactive are those of the source. How the source made its calls: active means growth percent below 10; inactive means the rest.
Classes used: active, inactive

MOLECULE: CN1C2CCC1/C(=C\c1ccc(Cl)cc1)C(=O)/C2=C/c1ccc(Cl)cc1
DISCRETE_LABEL: inactive

MOLECULE: Cc1cc(C#Cc2ccc(C(C)(C)C)cc2)ccc1-n1c(/C=C/c2c(Cl)cccc2Cl)nc2ccccc2c1=O
DISCRETE_LABEL: inactive

MOLECULE: COC(=O)[C@H](Cc1cn(C)cn1)NC(=O)[C@H](CC(C)C)NC(=O)Nc1cc(C(F)(F)F)cc(C(F)(F)F)c1
DISCRETE_LABEL: active

MOLECULE: C[C@@H]1N=C(c2ccc3ccccc3c2)Nc2nc3ccccn3c2C1=O
DISCRETE_LABEL: inactive

MOLECULE: CCN(C(=O)CCl)C(C)(C)C(SSSC(c1ccc(Cl)cc1)C(C)(C)N(CC)C(=O)CCl)c1ccc(Cl)cc1 (configuration not stated)
DISCRETE_LABEL: inactive

MOLECULE: CSc1ccc(/C=C2\C=C(CC(=O)NCc3ccc(C(=O)c4ccccc4)cc3)c3cc(F)ccc32)cc1
DISCRETE_LABEL: active

MOLECULE: O=C(CC(=O)c1ccccc1F)Nc1ccc([N+](=O)[O-])cc1
DISCRETE_LABEL: inactive

MOLECULE: CCOC(=O)C1OC2(CCCC2)OC1C(=O)OCC (configuration not stated)
DISCRETE_LABEL: inactive

MOLECULE: CCn1c(=O)c(C(=O)NCCCO)c(O)c2ccccc21
DISCRETE_LABEL: inactive

MOLECULE: O=C(O)c1ccccc1Oc1cc(-c2ccco2)nc(OCCN2CCOCC2)n1
DISCRETE_LABEL: inactive

MOLECULE: C=CCN(CC#N)CC=C
DISCRETE_LABEL: inactive

MOLECULE: COc1cccc(C2C(C#N)=C(N)Oc3cc4c(cc32)OCO4)c1 (configuration not stated)
DISCRETE_LABEL: active

MOLECULE: O=C1OC(/C=C/c2ccccc2)=NC/1=C/c1ccccc1[N+](=O)[O-]
DISCRETE_LABEL: inactive

MOLECULE: Nc1c(C(=O)C[C@@H](N)CO)ccc2c1C(=O)CCO2
DISCRETE_LABEL: inactive

MOLECULE: COc1cc(NC(=O)CSc2nc3ccc(Cl)cc3c(=O)n2-c2ccccc2)cc(OC)c1OC
DISCRETE_LABEL: inactive

MOLECULE: Fc1ccc(-c2nc(-c3ccc(-c4nc5ccc(F)cc5[nH]4)cc3)no2)cc1
DISCRETE_LABEL: inactive

MOLECULE: O=C(/C=C/c1ccccc1)c1c[nH]c2ccccc2c1=O
DISCRETE_LABEL: inactive
